Cited source: patent US12351834B2

- Assay Details: In vivo tissue lipid clearance in Balb/c mice
- Design: species or system mouse
- Run Conditions: Balb/c, mouse, kidney; 1 mg/kg IV; read-out: Tmax, kidney
Measure: Tmax

Recall and state the measured Tmax for CCCCCC/C=C\COC(=O)CCCCCN(CCCCCC(=O)OC(CCCCCCC)CCCCCCC)C(=O)SCCN(C)C .
1.98 to 60 min

* * *

- Assay Details: In vivo tissue lipid clearance in Balb/c mice
- Set-up: species or system mouse
- Run Conditions: Balb/c, mouse, liver; 1 mg/kg IV; read-out: Tmax, liver
Measure: Tmax

Please report the measured Tmax for CCCCCC/C=C\COC(=O)CCCCCN(CCCCCC(=O)OC(CCCCCCC)CCCCCCC)C(=O)SCCN(C)C [Lipid #3]
1.98 to 60 min

* * *

- Assay Details: In vivo tissue lipid clearance in Balb/c mice
- Parameters: species or system mouse
- Run Conditions: Balb/c, mouse, spleen; 1 mg/kg IV; read-out: half-life, spleen (converted)
Measure: half-life
Number first, unit second.

Name the recorded half-life of the item CCCCCC/C=C\COC(=O)CCCCCN(CCCCCC(=O)OC(CCCCCCC)CCCCCCC)C(=O)SCCN(C)C in your answer.
24 h

* * *

- Assay Details: In vivo tissue lipid clearance in Balb/c mice
- Design: species or system mouse
- Run Conditions: Balb/c, mouse, liver; 28 days post-dose, 1 mg/kg IV; read-out: lipid concentration in the liver
Measure: concentration at 28 days (ng/mL)
Entry rule: numbers only, all in ng/mL.

Return concentration at 28 days (reported value) for this compound: CCCCCCCC(CCCCCCC)OC(=O)CCCN(CCCC(=O)OC(CCCCCCC)CCCCCCC)C(=O)SCCCN(C)C [Lipid #7]
17.2

* * *

- Assay Details: In vivo tissue lipid clearance in Balb/c mice
- Design: species or system mouse
- Run Conditions: Balb/c, mouse, liver; 1 mg/kg IV; read-out: half-life, liver (converted)
// half-life lookup, one value per entry
Write the value in days as a bare number.

Give the value of half-life reported for the following: CCCCCC/C=C\COC(=O)CCCCCN(CCCCCC(=O)OC(CCCCCCC)CCCCCCC)C(=O)SCCN(C)C
0.917

Next:
Item CCCCCCCC(CCCCCCC)OC(=O)CCCN(CCCC(=O)OC(CCCCCCC)CCCCCCC)C(=O)SCCCN(C)C : provide half-life
3.5

* * *

- Assay Details: In vivo tissue lipid clearance in Balb/c mice
- Set-up: species or system mouse
- Run Conditions: Balb/c, mouse, spleen; 1 mg/kg IV; read-out: Tmax, spleen
Measure: Tmax

Quote Tmax reported for CCCCCC/C=C\COC(=O)CCCCCN(CCCCCC(=O)OC(CCCCCCC)CCCCCCC)C(=O)SCCN(C)C please.
1 to 2 h
